Data provenance: the supplement of paper PMC10567573

B1: ZNF449 (parent)
chain: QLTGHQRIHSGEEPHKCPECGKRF

# Variants of: B1
# protocol_notes: protein stability index of a GFP-peptide fusion (GPS, HEK-293T) (PSI 1-6); higher = more stable;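 also: lentivirally expressed fusions sorted by FACS into six bins by GFP to DsRed ratio, PSI derived from sequencing read proportions per bin multiplied by bin number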
# study_conditions: c terminus: a fixed tail appended
# binarize protein stability index: threshold 4 inclusive, high side Yes, low side No

Here are 5 variants together with their reported answers.
Record `S10K` ; criterion: protein stability index no lower than 4. Met?
No

Could you do the same for `E13F` , please?
No

Could you do the same for `E12K` , please?
No

Could you do the same for `K22Q` , please?
No

Could you do the same for `G11P` , please?
Yes

***
Record `K16S` ; criterion: protein stability index no lower than 4. Met?
Yes

Could you do the same for `G21L` , please?
Yes

Could you do the same for `L2T` , please?
Yes

Could you do the same for `C17A` , please?
Yes

Could you do the same for `Q6T` , please?
No

Could you do the same for `Q1E` , please?
No

Could you do the same for `K22D` , please?
Yes

Could you do the same for `Q6W` , please?
No

Could you do the same for `G11V` , please?
No

Could you do the same for `E13Q` , please?
No

Could you do the same for `G21N` , please?
Yes

Could you do the same for `E12A` , please?
Yes

Could you do the same for `E12C` , please?
No

Could you do the same for `I8K` , please?
No

Could you do the same for `P18F` , please?
No

Could you do the same for `K16D` , please?
Yes
